Documented interaction score across a set of binders
target: T1, P7mS
T1 chain: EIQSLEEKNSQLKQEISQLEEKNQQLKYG
assay-info: two-hybrid library CC1;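 also: natural log of median RNA to DNA barcode read ratio; higher means stronger binding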
study-conditions: mean of both orientations
Response field accepts a number only; no unit should be typed.

KISQLKQKIQQLKQENQQLEEENSQLEYG [P4mS]    -2.94
KNAQLKEKIAALKEKIQQLKEENQALEYG [P12]    -2.85

Can you look up the measured interaction score of KNSQLKEEIQQLEEENQQLEEKISQLKYG [P6mS] for me? -2.67

Then what about the binder ENQALEQEIAQLEQEIAALEQKNAQLKYG [P11] ? -2.62
